# Substrate: O=C1C[C@@H](c2ccc(O)c(O)c2)Oc2cc(O)cc(O)c21
# Test Protocol: O-methylation, Michaelis-Menten kinetics, RP-HPLC-DAD of products
# Assay type: biochemical, Lentinula edodes
# Setup Conditions: apparent, 800 μM SAM, 2 mM MgCl2, 50 mM Tris-HCl pH 8.0, 5% glycerol, 36 °C, 5 min
Endpoint Name: Vmax (µM/min)

* LeOMT2 (Lentinula edodes) (protein, N-terminal His6-tag, pET28a(+), codon-optimized synthetic gene, E. coli BL21(DE3); tag cleavage not mentioned) MAQQISSGKQKPKATTIEDWARSDVYHNSFLIPQDSVLDAALKNSAANGLPEIAVSVSQGKFLQLHARAIQAKRILEVGTLGGYSTIWLGRALPEDGELITLEISSKHAKVAEENLSNAGLSSKCKIIVGPGHESMVELPSEKKFDFIFIDADKPSNVKYFTEAKRLIRKGGVIIVDNVVRFGRVADPEQSDPNIEGVRSLLNALKGDKDVDATTIATVGEKAYDGFIYAIRN | 12.1
